- Tested on: Balb/c mice
- experimental-details: In vivo expression by IV, 0.05 mg/kg luciferase RNA-LNPs, IVIS luminescence
- experimental-setup: Formulation No. 001, RNA No. 331; female Balb/c mice, 0.05 mg*kg−1 intravenous, 24-hours post injection
- Experimental: 7-8 week old, female Balb/c mice (N=3) were injected with 0.05 mg*kg−1 of RNA-LNPs encoding for firefly-luciferase by intravenous injection. At 24- and 72-hours post injection, animals were intraperitoneally injected with 15 mg/mi of Luciferin substrate and whole-body luminescence was determined by a bioluminescent in vivo imaging system (IVIS). 7-8 week old, female Balb/c mice (N=3) were injected with 0.05 mg*kg−1 of RNA-LNPs encoding for firefly-luciferase by intravenous injection. […]
readout-type: Whole body (p/s) (Mean)
Output spec: scalar in p/s, unitless text.

A selection of reference data follows.
| molecule | readout-type | assay-result |
| --- | --- | --- |
| CCCCCCCCC(CCCCCC)C(=O)OCCCCCCCCOC(=O)NC(COC(=O)NCCN(C)C)C(=O)OCCCCCCCCOC(=O)C(CCCCCC)CCCCCCCC (stereo not drawn) | Whole body (p/s) (Mean) | 1.60E+09 |
| CCCCCCCCCCCOC(=O)CCCCCOC(=O)C(COC(=O)NCCN1CCCCCC1)NC(=O)OCCCCCCCCOC(=O)C(CCCCCC)CCCCCCCC (stereo not drawn) | Whole body (p/s) (Mean) | 3.08E+09 |
| CCCCCCCCCCCOC(=O)NC(COC(=O)NCCN1CCCCC1)C(=O)OCCCCCCCC(=O)OC(CCCCCCCC)CCCCCCCC (stereo not drawn) | Whole body (p/s) (Mean) | 1.19E+09 |
| CCCCC/C=C\C/C=C\CCCCCCCCOC(=O)NC(COC(=O)NCCN1CCCC1)C(=O)OCCCCCC(=O)OCC(CCCCCCCC)CCCCCCCCCC (stereo not drawn) | Whole body (p/s) (Mean) | 7.25E+08 |
| CCCCCCCCCCCOC(=O)NC(COC(=O)NCCN(C)C)C(=O)OCCCCCCCC(=O)OC(CCCCCCCC)CCCCCCCC (stereo not drawn) | Whole body (p/s) (Mean) | 8.26E+07 |
| CCCCC/C=C\CCOC(=O)CCCCCOC(=O)C(COC(=O)NCCN1CCCCC1)NC(=O)OCCCCCCCCOC(=O)C(CCCCCC)CCCCCCCC (stereo not drawn) | Whole body (p/s) (Mean) | 2.71E+09 |
| CCCCCCCCCC(=O)OCCCCCCCOC(=O)C(COC(=O)NCCN1CCCCCC1)NC(=O)OCCCCCCCCOC(=O)C(CCCCCC)CCCCCCCC (stereo not drawn) | Whole body (p/s) (Mean) | 1.87E+09 |
| CCCCCCCCCCCOC(=O)CCCCCOC(=O)C(COC(=O)NCCN1CCCCC1)NC(=O)OCCCCCCCCOC(=O)C(CCCCCC)CCCCCCCC (stereo not drawn) | Whole body (p/s) (Mean) | 1.57E+09 |

The value of Whole body (p/s) (Mean) recorded for CCCCC/C=C\C/C=C\CCCCCCCCOC(=O)NC(COC(=O)NCCN1CCCCCC1)C(=O)OCCCCCCCCCC(=O)OCCCCCCC (stereo not drawn) when tested on Balb/c mice reads 3.16E+09

The value of Whole body (p/s) (Mean) recorded for CCCCC/C=C\C/C=C\CCCCCCCCOC(=O)NC(COC(=O)NCCN1CCCCCC1)C(=O)OCCCCCCCOC(=O)CCCCCCCCC (stereo not drawn) when tested on Balb/c mice reads 1.29E+09

Reference source: patent US20260200849A1
